Source: the OligoGym collection

Molecular target: BIRC2
Details: ASO; further: test concentration or dose not given here
These antisense oligonucleotides have a phosphorothioate backbone; sugars and methylation of C are not fully specified.
Recorded remaining target (mRNA or protein) (fraction of control) values for a group of sequences are listed next.

>>> df
      sequence_string  test_system  assay_value
0  ACTTTCTTCCTAACTTTG        BIRC2          ≥ 1
1  CTAGTGTTATCAGAAACG        BIRC2          ≥ 1
2  TTTCTCATTGGAGACGTA        BIRC2         0.68
3  TTCCTGGTTTCCAGTTCT        BIRC2         0.54
4  AGTGAAAAGCACCAAAGA        BIRC2          ≥ 1
5  TAGAATTAAGAGGGTTTG        BIRC2          ≥ 1
6  AAGTCAATACCCACAAGC        BIRC2          ≥ 1
7  GAGTAAGAACCACTGAAC        BIRC2          ≥ 1
8  AAGCACTTTAACATGACA        BIRC2         0.85
9  ACCTGGGAAAAGTCTTTG        BIRC2          ≥ 1

Problem: Return reported remaining target (mRNA or protein) (fraction of control); argument: AAAAGCTAAGTTCACACA
Result: ≥ 1

Problem: Return reported remaining target (mRNA or protein) (fraction of control); argument: TTCCCAGTTACTGAGCTT
Result: 0.22

Problem: Return reported remaining target (mRNA or protein) (fraction of control); argument: TCGCTTGTAAAGGTATCT
Result: ≥ 1

Problem: Return reported remaining target (mRNA or protein) (fraction of control); argument: TCAGGTAGGATGAGTATC
Result: 0.89

Problem: Return reported remaining target (mRNA or protein) (fraction of control); argument: GACCACAAGGAATAAATA
Result: ≥ 1

Problem: Return reported remaining target (mRNA or protein) (fraction of control); argument: TATATGCAGGCTTCTTTC
Result: 0.77

Problem: Return reported remaining target (mRNA or protein) (fraction of control); argument: TTAAGGACTATTCAGCTA
Result: ≥ 1

Problem: Return reported remaining target (mRNA or protein) (fraction of control); argument: CTCAGATTTGAAATGCTA
Result: ≥ 1

----------
Target: E2F1
Settings: ASO
These antisense oligonucleotides have a phosphorothioate backbone; sugars and methylation of C are not fully specified.
Recorded remaining target (mRNA or protein) (fraction of control) values for a group of sequences are listed next.
// no unit string in output, number only

In [3]: df
Out[3]:
        sequence_string  test_system  assay_value
0  CACCGTCCTACACGCCCAGC         E2F1         0.44
1  GTGGTCAGATTCAGTGAGGT         E2F1         0.43
2  CACAGGAAAACATCGATCGG         E2F1          0.9
3  AAGTCCCGGCCACGGAATTC         E2F1         0.87
4  CGGCGGGCGGCCGAGCGCGG         E2F1         0.83

Problem: Return reported remaining target (mRNA or protein) (fraction of control); argument: GGACTTCTTGGCAATGAGCT
Result: 0.65

Problem: Return reported remaining target (mRNA or protein) (fraction of control); argument: ATGTCATAGATGCGCCGCTT
Result: 0.77

Problem: Return reported remaining target (mRNA or protein) (fraction of control); argument: AGGAAGCGCTTGGTGGTCAG
Result: 0.72

Problem: Return reported remaining target (mRNA or protein) (fraction of control); argument: GGCCATGACGCTCACGGCCC
Result: 0.76

Problem: Return reported remaining target (mRNA or protein) (fraction of control); argument: GCCCACTGCTCTCGGCCAGG
Result: 0.4
